# reported melting point; entries follow
value-type: melting point

>  <compound>
CC(=O)NCCC1=CCc2ccc3c(c21)CCO3

>  <value-type>
melting point

>  <experimental-result>
153 to 155 °C

$$$$
>  <compound>
O=CN(O)C(CS(=O)(=O)c1ccccc1Oc1ccc(OC(F)(F)F)cc1)C(CO)CO (stereo not given)

>  <value-type>
melting point

>  <experimental-result>
129 to 131 °C

$$$$
>  <compound>
OCc1ccccc1NC1CCN(Cc2ccccc2)CC1

>  <value-type>
melting point

>  <experimental-result>
164 to 168 °C

$$$$
>  <compound>
COc1ccc(C(=C2CCCCC2)c2ccc(OC)c(OC)c2)cc1OC

>  <value-type>
melting point

>  <experimental-result>
107 °C

$$$$
>  <compound>
O=C(NCCCn1cncn1)c1ccc([N+](=O)[O-])o1

>  <value-type>
melting point

>  <experimental-result>
176 to 177 °C

$$$$
>  <compound>
NC(=O)CNC(=O)c1sc(Nc2ccccc2)c2c1CCc1cnoc1-2

>  <value-type>
melting point

>  <experimental-result>
213 to 214 °C

$$$$
>  <compound>
CNC(=O)c1cccc(NC(=O)COc2ccccc2Cl)c1

>  <value-type>
melting point

>  <experimental-result>
172 to 173 °C

$$$$
>  <compound>
O=C(Nc1cccc2c(=O)cc[nH]c12)c1c(Cl)cccc1Cl

>  <value-type>
melting point

>  <experimental-result>
342 °C

$$$$
>  <compound>
CC(C)(O)[C@H](CO)NC(=O)[C@@H](CC(=O)O)n1ccc(-c2ccc(-c3ccccc3)cc2)c1

>  <value-type>
melting point

>  <experimental-result>
150 to 152 °C

$$$$
>  <compound>
COc1ccc2[nH]cc(C)c2c1OCc1ccccc1

>  <value-type>
melting point

>  <experimental-result>
60 to 61 °C

$$$$
